In this section we review reported HD10 (hemolytic activity) values for a set of compounds.
System: erythrocytes
Experiment: Hemolytic activity (HD10/HD50)
Type: cell-based
Numbered stars: 1 amine (or outer) side, 2 acyl side, 3 side chain; on linkers, the order of the positions; unused ones are H or OH. Square brackets hold non-standard residues; d marks the D form. Peptide text beside a SMILES is read from it. X1 = CC(C)[C@H](C)N(CC(=O)[*:2])[*:1]; Nspe = C[C@H](NCC(=O)O)c1ccccc1; Nphe = O=C(O)CNCc1ccccc1; Nlys = NCCCCNCC(=O)O
Respond using a number only.

Consider the reported HD10 (hemolytic activity) for these compounds:
[
  {
    "compound": "C[C@@H](c1ccccc1)N(CC(N)=O)C(=O)CN(CCCCN)C(=O)CN(C(=O)CN(C(=O)CN(CCCCN)C(=O)CN(C(=O)CN(C(=O)CN(CCCCN)C(=O)CN(C(=O)CN(C(=O)CNCCCCN)[C@@H](C)c1ccccc1)[C@@H](C)c1ccccc1)[C@@H](C)c1ccccc1)[C@@H](C)c1ccccc1)[C@@H](C)c1ccccc1)[C@@H](C)c1ccccc1 [Peptoid 1_11mer, H-(NLys-Nspe-Nspe)3-NLys-Nspe-NH2] (H-[Nlys][Nspe][Nspe][Nlys][Nspe][Nspe][Nlys][Nspe][Nspe][Nlys][Nspe]-NH2)",
    "quantity.measured": "HD10 (hemolytic activity)",
    "value": 103
  },
  {
    "compound": "C[C@@H](c1ccccc1)N(CC(=O)N(CC(=O)N(CCCCN)CC(=O)N(CC(=O)N(CC(=O)N(CCCCN)CC(=O)N(CC(=O)N(CC(=O)N(CCCCN)CC(=O)N(CC(=O)N(CC(N)=O)Cc1ccccc1)Cc1ccccc1)Cc1ccccc1)Cc1ccccc1)Cc1ccccc1)Cc1ccccc1)Cc1ccccc1)C(=O)CNCCCCN [Peptoid 1ach-Nspe2, H-(NLys-Nspe-Npm)- (NLys-Npm-Npm)3-NH2] (H-[Nlys][Nspe][Nphe][Nlys][Nphe][Nphe][Nlys][Nphe][Nphe][Nlys][Nphe][Nphe]-NH2)",
    "quantity.measured": "HD10 (hemolytic activity)",
    "value": 160
  },
  {
    "compound": "CC(C)[C@H](C)N(CC(=O)N(CCCCN)CC(=O)N(CC(=O)N(CC(=O)N(CCCCN)CC(=O)N(CC(=O)N(CC(=O)N(CCCCN)CC(=O)N(CC(=O)N(CC(N)=O)[C@@H](C)c1ccccc1)[C@@H](C)c1ccccc1)[C@@H](C)C(C)C)[C@@H](C)C(C)C)[C@@H](C)c1ccccc1)[C@@H](C)c1ccccc1)C(=O)CN(C(=O)CNCCCCN)[C@@H](C)C(C)C [1-Nsdp2,3,8,9, H-(NLys-Nsdp-Nsdp-NLys-Nspe-Nspe)2-NH2] (H-[Nlys][X1][X1][Nlys][Nspe][Nspe][Nlys][X1][X1][Nlys][Nspe][Nspe]-NH2)",
    "quantity.measured": "HD10 (hemolytic activity)",
    "value": 77
  }
]

Need HD10 (hemolytic activity) of C[C@@H](c1ccccc1)N(CC(N)=O)C(=O)CN(Cc1ccccc1)C(=O)CN(CCCCN)C(=O)CN(Cc1ccccc1)C(=O)CN(Cc1ccccc1)C(=O)CN(CCCCN)C(=O)CN(Cc1ccccc1)C(=O)CN(Cc1ccccc1)C(=O)CN(CCCCN)C(=O)CN(Cc1ccccc1)C(=O)CN(Cc1ccccc1)C(=O)CNCCCCN , thanks.
164
